# measurement_target: T1, 人B7-H3变体1(4Ig-B7-H3) on stable cells 293-h4Ig-B7-H3-copGFP (human, UniProt Q5ZPR3 29-534)
# T1 construct: Full-length CDS cloned in pCDH-EF1-T2A-copGFP and expressed on stably transduced cells; residues left by T2A cleavage not described
# T1 sequence: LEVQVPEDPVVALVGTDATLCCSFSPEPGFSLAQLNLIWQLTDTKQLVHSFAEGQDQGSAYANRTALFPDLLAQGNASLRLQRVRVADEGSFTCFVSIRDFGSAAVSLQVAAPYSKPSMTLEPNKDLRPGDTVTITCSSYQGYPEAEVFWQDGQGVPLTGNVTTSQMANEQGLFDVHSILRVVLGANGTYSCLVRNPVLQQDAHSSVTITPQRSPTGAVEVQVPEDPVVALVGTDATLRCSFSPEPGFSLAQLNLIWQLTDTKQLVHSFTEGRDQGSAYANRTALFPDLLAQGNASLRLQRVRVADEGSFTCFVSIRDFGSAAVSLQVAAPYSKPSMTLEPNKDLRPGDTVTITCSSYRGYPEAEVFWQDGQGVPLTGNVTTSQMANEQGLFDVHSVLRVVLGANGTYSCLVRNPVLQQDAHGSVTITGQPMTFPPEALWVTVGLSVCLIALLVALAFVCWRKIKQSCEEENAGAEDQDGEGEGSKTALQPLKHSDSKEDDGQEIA
# test_details: FACS, 293-h4Ig-B7-H3-copGFP stable cells
observable: binding result

binder	observable	experimental_value
h27B4-H2-L2 (antibody, human IgG1, kappa, V domains shown, Whole IgG, humanized; optimized hIgG1 (L235V, F243L, R292P, Y300L, P396L) and human kappa; also called zw.M0883B9.27B4Z01) VH: QVQLVQSGAEVKKPGSSVKVSCKASGYTFTTYWISWVRQAPGQGLEWMGGIYPGDGGSNYAQKFQGRVTITADESTSTAYMELSSLRSEDTAVYYCARGGNYISFPMYYWGQGTLVTVSS VL: VIWMTQSPSLLSASTGDRVTISCKASRGVSTALAWYQQKPGKAPELLIYWASTLQSGVPSRFSGSGSGTDFTLTISCLQSEDFATYYCQQHYDTPYTFGQGTKLEIKR	binding result	binds
scFv-27B4-H4-L1 (scFv, VH-linker-VL in phage display vector pXY, expressed in TG1, purified on a nickel column) scFv: EVQLVQSGAEVKKPGESLKISCKASGYTFTTYWIGWVRQMPGKGLEWMGIIYPGDGGSRYSPSFQGQVTISADKSISTAYLQWSSLKASDTAMYYCARGGNYISFPMYYWGQGTLVTVSSGGGGSGGGGSGGGGSGGGGASDIQMTQSPSSLSASMGDRVTITCKASRGVSTALNWYQQKPGKAPKLLIYWASSLQSGVPSRFSGSGSGTDFTLTISSLQPEDFATYYCQQHYDTPYTFGQGTKLEIK	binding result	binds
scFv-27B4-H2-L5 (scFv, VH-linker-VL in phage display vector pXY, expressed in TG1, purified on a nickel column) scFv: QVQLVQSGAEVKKPGSSVKVSCKASGYTFTTYWISWVRQAPGQGLEWMGGIYPGDGGSNYAQKFQGRVTITADESTSTAYMELSSLRSEDTAVYYCARGGNYISFPMYYWGQGTLVTVSSGGGGSGGGGSGGGGSGGGGASDIVMTQTPLSLSVTPGQPASISCKASRGVSTALYWYLQKPGQPPQLLIYWASNRFSGVPDRFSGSGSGTDFTLKISRVEAEDVGVYYCQQHYDTPYTFGQGTKLEIK	binding result	binds
